Test: Bulk and tapped density
Format: physicochemical
Description: The bulk density of β-GPA oxalate (Pattern 18 B), succinate (Pattern 15A), and fumarate (Pattern 7A) were determined by pouring in a known amount of salt (g) into a measuring cylinder. The volume (Vi) occupied by the salt was recorded and the bulk density (ρB) was determined using equation 1. ρB=g/Vi (1) The tapped densities of the salts were determined using a Tap density analyzer. […]
Can you tell me Tapped density for the items I'm about to list?
Field: numeric (g/cc). Do not append units.

Query: Which Tapped density value is on record for N=C(N)NCCC(=O)O [β-GPA, β-Guanidinopropionic acid, reference compound] ?
Reply: 0.627

Query: Field request: Tapped density | item: N=C(N)NCCC(=O)O.N=C(N)NCCC(=O)O.O=C(O)CCC(=O)O [β-GPA succinate (2:1)]
Reply: 0.472

Query: If you can, please state the reported Tapped density value of N=C(N)NCCC(=O)O.N=C(N)NCCC(=O)O.O=C(O)/C=C/C(=O)O [β-GPA fumarate (2:1)] .
Reply: 0.613

Query: Give its Tapped density value. Item: N=C(N)NCCC(=O)O.O=C(O)C(=O)O [β-GPA oxalate (1:1)]
Reply: 0.623

src = patent US9884813B1
